Settings: 303.15 K; 25000 kPa; Liquid; Vibrating tube method
measurement.name: mass density (kg/m3)
Answer format: numeric, kg/m3 implied, no suffix.

The following compounds have reported results that may help.
CCCC[n+]1ccccc1.O=S(=O)([O-])C(F)(F)F [1-butylpyridinium trifluoromethanesulfonate] = 1325.53
CCCC[n+]1cccc(C)c1.N#C[N-]C#N [1-butyl-3-methylpyridinium dicyanamide] = 1055.82
CCC[n+]1ccccc1Oc1ccc(Cl)c[n+]1CCOS(=O)(=O)[O-].F[B-](F)(F)F = 1260.46
CCCCCCCC[n+]1cccc(C)c1.F[B-](F)(F)F [N-octyl-3-methylpyridinium tetrafluoroborate] = 1104.99

Let us examine a further case.
Request: Find the recorded mass density belonging to CCCC[n+]1ccccc1.F[B-](F)(F)F [1-butylpyridinium tetrafluoroborate] and report it.
Result: 1222.02

* * *

Settings: 298.15 K; 5000 kPa; Liquid; Vibrating tube method
Reported mass density values for the following compounds.
Just the number in kg/m3, nothing appended.

CCCC[n+]1cccc(C)c1.N#C[N-]C#N [1-butyl-3-methylpyridinium dicyanamide] = 1051.35
CCCC[n+]1ccccc1.F[B-](F)(F)F [1-butylpyridinium tetrafluoroborate] = 1216.62

Request: # mass density lookup, item CCC[n+]1ccccc1Oc1ccc(Cl)c[n+]1CCOS(=O)(=O)[O-].F[B-](F)(F)F
Result: 1255.54

Request: // query mass density value for entry CCCCCCCC[n+]1cccc(C)c1.F[B-](F)(F)F [N-octyl-3-methylpyridinium tetrafluoroborate]
Result: 1098.54

* * *

Settings: 328.15 K; 100 kPa; Liquid; Vibrating tube method
measurement.name: mass density (kg/m3)
Return type: number; implicit unit kg/m3.

Request: Reported mass density, compound CCCC[n+]1cccc(C)c1.N#C[N-]C#N [1-butyl-3-methylpyridinium dicyanamide] : ____
Result: 1031.21

Request: Query (compound): CCCC[n+]1ccccc1.F[B-](F)(F)F [1-butylpyridinium tetrafluoroborate] ; field requested: mass density
Result: 1193.36

Request: Sample CCC[n+]1ccccc1Oc1ccc(Cl)c[n+]1CCOS(=O)(=O)[O-].F[B-](F)(F)F — what was its mass density?
Result: 1231.68

Request: If you can, please state the reported mass density value of CCCCCCCC[n+]1cccc(C)c1.F[B-](F)(F)F [N-octyl-3-methylpyridinium tetrafluoroborate] .
Result: 1075.89

Request: Which mass density is reported for this compound? CCCC[n+]1ccccc1.O=S(=O)([O-])C(F)(F)F [1-butylpyridinium trifluoromethanesulfonate]
Result: 1292.18

* * *

Details: 323.15 K; 65000 kPa; Liquid; Vibrating tube method
Reported mass density values for a set of compounds
Lab book: enter the figure in kg/m3, no units written.

Recorded results for 3 compounds are shown here.
CCCC[n+]1ccccc1.F[B-](F)(F)F [1-butylpyridinium tetrafluoroborate] = 1224.65
CCCC[n+]1ccccc1.O=S(=O)([O-])C(F)(F)F [1-butylpyridinium trifluoromethanesulfonate] = 1330.03
CCCC[n+]1cccc(C)c1.N#C[N-]C#N [1-butyl-3-methylpyridinium dicyanamide] = 1058.03

Request: Which mass density value belongs to CCCCCCCC[n+]1cccc(C)c1.F[B-](F)(F)F [N-octyl-3-methylpyridinium tetrafluoroborate] ?
Result: 1109.77

Request: Fill in the blank: the reported mass density of CCC[n+]1ccccc1Oc1ccc(Cl)c[n+]1CCOS(=O)(=O)[O-].F[B-](F)(F)F is ____.
Result: 1262.15

* * *

Conditions: 313.15 K; 5000 kPa; Liquid; Vibrating tube method
# mass density per entry
Quick note: give the figure in kg/m3, leave out the unit.

Look over these answered cases.
CCCC[n+]1ccccc1.F[B-](F)(F)F [1-butylpyridinium tetrafluoroborate] = 1206.23
CCCC[n+]1cccc(C)c1.N#C[N-]C#N [1-butyl-3-methylpyridinium dicyanamide] = 1042.22
CCCC[n+]1ccccc1.O=S(=O)([O-])C(F)(F)F [1-butylpyridinium trifluoromethanesulfonate] = 1306.89
CCC[n+]1ccccc1Oc1ccc(Cl)c[n+]1CCOS(=O)(=O)[O-].F[B-](F)(F)F = 1244.75

Request: Which mass density is listed for CCCCCCCC[n+]1cccc(C)c1.F[B-](F)(F)F [N-octyl-3-methylpyridinium tetrafluoroborate] ?
Result: 1088.47

* * *

Conditions: 323.15 K; 40000 kPa; Liquid; Vibrating tube method
± gives the expanded uncertainty stated by the source.
Reported mass density values for the following compounds.
In your response, put the unit directly after the numeric value.

Some compounds with known mass density results, for comparison:
CCCC[n+]1ccccc1.F[B-](F)(F)F [1-butylpyridinium tetrafluoroborate] = 1215.03 ± 0.74 kg/m3
CCCC[n+]1cccc(C)c1.N#C[N-]C#N [1-butyl-3-methylpyridinium dicyanamide] = 1049.73 ± 1 kg/m3

Request: // lookup mass density for CCCCCCCC[n+]1cccc(C)c1.F[B-](F)(F)F [N-octyl-3-methylpyridinium tetrafluoroborate]
Result: 1099.23 ± 1.2 kg/m3

Request: Can you look up the measured mass density of CCCC[n+]1ccccc1.O=S(=O)([O-])C(F)(F)F [1-butylpyridinium trifluoromethanesulfonate] for me?
Result: 1318.44 ± 0.99 kg/m3

Request: Find the recorded mass density belonging to CCC[n+]1ccccc1Oc1ccc(Cl)c[n+]1CCOS(=O)(=O)[O-].F[B-](F)(F)F and report it.
Result: 1252.76 ± 0.83 kg/m3

* * *

List of mass density values.
Details: 318.15 K; 45000 kPa; Liquid; Vibrating tube method
Respond numerically; units are kg/m3 and should not be typed.

CCCC[n+]1ccccc1.F[B-](F)(F)F [1-butylpyridinium tetrafluoroborate] = 1220.04
CCCC[n+]1ccccc1.O=S(=O)([O-])C(F)(F)F [1-butylpyridinium trifluoromethanesulfonate] = 1324.29
CCCCCCCC[n+]1cccc(C)c1.F[B-](F)(F)F [N-octyl-3-methylpyridinium tetrafluoroborate] = 1104.4
CCC[n+]1ccccc1Oc1ccc(Cl)c[n+]1CCOS(=O)(=O)[O-].F[B-](F)(F)F = 1257.93

Request: What does the record list as mass density for CCCC[n+]1cccc(C)c1.N#C[N-]C#N [1-butyl-3-methylpyridinium dicyanamide] ?
Result: 1054.09

* * *

Below: a set of entries, each annotated with reported mass density.
Details: 333.15 K; 60000 kPa; Liquid; Vibrating tube method
Only the number, expressed in kg/m3, is required.

CCC[n+]1ccccc1Oc1ccc(Cl)c[n+]1CCOS(=O)(=O)[O-].F[B-](F)(F)F = 1253.93
CCCCCCCC[n+]1cccc(C)c1.F[B-](F)(F)F [N-octyl-3-methylpyridinium tetrafluoroborate] = 1101.97
CCCC[n+]1cccc(C)c1.N#C[N-]C#N [1-butyl-3-methylpyridinium dicyanamide] = 1051.06
CCCC[n+]1ccccc1.F[B-](F)(F)F [1-butylpyridinium tetrafluoroborate] = 1216.56

Could you now look at the following compound, please?
Request: Form field: reported mass density of CCCC[n+]1ccccc1.O=S(=O)([O-])C(F)(F)F [1-butylpyridinium trifluoromethanesulfonate]
Result: 1320.81

* * *

Conditions: 318.15 K; 30000 kPa; Liquid; Vibrating tube method
measurement.name: mass density (kg/m3)
All answers are understood in kg/m3, so give the number only.

CCCC[n+]1ccccc1.F[B-](F)(F)F [1-butylpyridinium tetrafluoroborate] = 1213.85
CCCC[n+]1ccccc1.O=S(=O)([O-])C(F)(F)F [1-butylpyridinium trifluoromethanesulfonate] = 1316.74
CCCC[n+]1cccc(C)c1.N#C[N-]C#N [1-butyl-3-methylpyridinium dicyanamide] = 1048.91

Request: What mass density value was documented for this molecule, CCCCCCCC[n+]1cccc(C)c1.F[B-](F)(F)F [N-octyl-3-methylpyridinium tetrafluoroborate] ?
Result: 1097.71

Request: Could you share which mass density value was measured for CCC[n+]1ccccc1Oc1ccc(Cl)c[n+]1CCOS(=O)(=O)[O-].F[B-](F)(F)F ?
Result: 1251.93

* * *

Conditions: 303.15 K; 65000 kPa; Liquid; Vibrating tube method
measurement.name: mass density (kg/m3)
Write the number in kg/m3 without appending the unit.

CCCC[n+]1cccc(C)c1.N#C[N-]C#N [1-butyl-3-methylpyridinium dicyanamide] = 1069.21
CCCC[n+]1ccccc1.O=S(=O)([O-])C(F)(F)F [1-butylpyridinium trifluoromethanesulfonate] = 1344.13
CCCC[n+]1ccccc1.F[B-](F)(F)F [1-butylpyridinium tetrafluoroborate] = 1237.3
CCCCCCCC[n+]1cccc(C)c1.F[B-](F)(F)F [N-octyl-3-methylpyridinium tetrafluoroborate] = 1121.56

Moving on to the next compound.
Request: Can you share its mass density? I mean this compound: CCC[n+]1ccccc1Oc1ccc(Cl)c[n+]1CCOS(=O)(=O)[O-].F[B-](F)(F)F
Result: 1275.21

* * *

Details: 283.15 K; 20000 kPa; Liquid; Vibrating tube method
Listed here: items and their measured mass density.
Dear colleague, please return just the value in kg/m3, with no unit written.

Request: Quick one: mass density for CCC[n+]1ccccc1Oc1ccc(Cl)c[n+]1CCOS(=O)(=O)[O-].F[B-](F)(F)F ?
Result: 1273.05
